Experimental target: human orexin type 2 receptor (Homo sapiens)
Construct: expressed in transfected cells
Sequence (O43614 1-444): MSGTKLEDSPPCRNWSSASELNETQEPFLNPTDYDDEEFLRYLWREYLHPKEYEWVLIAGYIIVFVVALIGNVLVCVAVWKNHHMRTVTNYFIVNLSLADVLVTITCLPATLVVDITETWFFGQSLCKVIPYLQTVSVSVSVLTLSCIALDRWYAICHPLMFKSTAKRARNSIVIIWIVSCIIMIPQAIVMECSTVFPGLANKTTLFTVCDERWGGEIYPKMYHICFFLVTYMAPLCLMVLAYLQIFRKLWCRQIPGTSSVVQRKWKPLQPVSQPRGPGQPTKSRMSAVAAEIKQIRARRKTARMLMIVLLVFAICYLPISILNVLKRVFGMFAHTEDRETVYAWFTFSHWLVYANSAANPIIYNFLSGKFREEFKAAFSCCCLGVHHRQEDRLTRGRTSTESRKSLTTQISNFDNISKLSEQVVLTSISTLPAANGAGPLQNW
Test protocol: Measurement of orexin type 2 receptor agonist activity (calcium fluorescence, Fluo-4 AM, FDSS) in CHO cells forcibly expressing human OX2 receptor
Type: cell-based
Details: test compound 3 μM, DMSO = 0%, orexin A (human) 10 nM = 100%
Observation type: 0X2R agonist activity (3 μM, %)

>  <Molecule>
Cc1cc2n(c(=O)c1C)[C@@H](Cc1cccc(-c3ccccc3)c1)[C@@H](NS(C)(=O)=O)CC2 (racemic) [Example 19]

>  <0X2R agonist activity (3 μM, %)>
122

$$$$
>  <Molecule>
CC(C)n1cnc2c(c1=O)[C@@H](Cc1cccc(-c3cc(F)cc(F)c3)c1F)[C@@H](NS(=O)(=O)C1(F)CC1)CC2 [Example 182]

>  <0X2R agonist activity (3 μM, %)>
101

$$$$
>  <Molecule>
Cn1cc2n(c1=O)[C@@H](Cc1cccc(-c3cc(F)cc(F)c3)c1F)[C@@H](NS(C)(=O)=O)CC2 (racemic) [Example 209]

>  <0X2R agonist activity (3 μM, %)>
74

$$$$
>  <Molecule>
CCn1ccc2c(c1=O)[C@@H](Cc1cccc(-c3cccc(F)c3F)c1)[C@@H](NS(C)(=O)=O)CC2 (racemic) [Example 124]

>  <0X2R agonist activity (3 μM, %)>
105

$$$$
>  <Molecule>
CCS(=O)(=O)N[C@H]1CCc2ncn(C(C)C)c(=O)c2[C@H]1Cc1cccc(-c2cc(F)cc(F)c2)c1 [Example 177]

>  <0X2R agonist activity (3 μM, %)>
95

$$$$
>  <Molecule>
CC1OCC2CCC(NS(C)(=O)=O)C(Cc3cccc(-c4cccc(F)c4)c3)N2C1=O (racemic) [Example 165]

>  <0X2R agonist activity (3 μM, %)>
97

$$$$
>  <Molecule>
CCn1ccc2c(c1=O)[C@@H](Cc1cccc(-c3cc(F)cc(C)c3F)c1)[C@@H](NS(C)(=O)=O)CC2 (racemic) [Example 127]

>  <0X2R agonist activity (3 μM, %)>
105

$$$$
>  <Molecule>
Cc1cccc(-c2cccc(C[C@@H]3c4c(ncn(C(C)C)c4=O)CC[C@@H]3NS(C)(=O)=O)c2)c1F (racemic) [Example 108]

>  <0X2R agonist activity (3 μM, %)>
100

$$$$
